METRIC NAME: melting point

molecule=CSc1nc(N)nc(N2CCc3ccccc3CC2)c1C#N metric_name="melting point" endpoint_result="164 to 168 °C"
molecule=COC(=O)c1cc(C)c(C)cc1C(=O)OC metric_name="melting point" endpoint_result="54 to 55 °C"
molecule="CCC(O)(c1ccc(OCc2ccccc2)cc1)c1ccc(Cl)cc1Cl (stereo not given)" metric_name="melting point" endpoint_result="56 to 57 °C"
molecule=CS(=O)(=O)N(c1ccc(C#CCCN2CC=C(c3ccccc3)CC2)nc1)S(C)(=O)=O metric_name="melting point" endpoint_result="168 to 170 °C"
molecule="CCC1(Cc2ccccc2)CCNC1=O (stereo not given)" metric_name="melting point" endpoint_result="89 to 90 °C"
molecule=COC(=O)C1=Cc2cc(-c3ccc(OC)cc3)ccc2SCC1 metric_name="melting point" endpoint_result="117 to 120 °C"
molecule=CCCCNc1ncn(-c2c(CC)cccc2CC)c(=O)n1 metric_name="melting point" endpoint_result="178 to 179 °C"
molecule="CC(O)c1cccc(NC(=O)NCC(=O)N(c2ccccc2)C(C)C(=O)N2CCCC(C)(C)C2)c1 (mixture of isomers)" metric_name="melting point" endpoint_result="186 °C"
molecule=CC#CCOc1ccc(S(=O)(=O)N(Cc2cccnc2)C2(C(=O)NO)CCCCC2)cc1 metric_name="melting point" endpoint_result="179 to 181 °C"
molecule=N#CCCCSc1cccc(NC(N)=NCC(F)(F)F)n1 metric_name="melting point" endpoint_result="89 to 91 °C"
